B1: VH:VL chains; a variant is named by its letters at X, in order (parent)
chain 1: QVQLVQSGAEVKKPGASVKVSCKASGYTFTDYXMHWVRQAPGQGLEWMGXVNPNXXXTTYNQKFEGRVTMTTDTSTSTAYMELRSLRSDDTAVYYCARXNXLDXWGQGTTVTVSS
chain 2: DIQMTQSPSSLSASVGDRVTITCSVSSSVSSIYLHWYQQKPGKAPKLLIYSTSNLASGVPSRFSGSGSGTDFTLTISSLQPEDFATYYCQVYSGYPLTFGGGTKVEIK

# Variants of: B1
# measurement_protocol: yeast display scFab, FACS + sequencing
reported_endpoint: non-specific binding call

{"residue_change": "YRAKGSGV", "non-specific binding call": "binds"}
{"residue_change": "FRERGSAD", "non-specific binding call": "binds"}
{"residue_change": "YTAGSDVA", "non-specific binding call": "no binding"}
{"residue_change": "YRREGAGD", "non-specific binding call": "binds"}
{"residue_change": "DTREGDVD", "non-specific binding call": "no binding"}

## Task Name the reported non-specific binding call value associated with the variant YRARGASA
## Result binds

## Task Name the reported non-specific binding call value associated with the variant VRKRGSSS
## Result binds

## Task Name the reported non-specific binding call value associated with the variant AEAGADVV
## Result no binding

## Task Name the reported non-specific binding call value associated with the variant FARENFLA chain 1 V51A
## Result binds

## Task Name the reported non-specific binding call value associated with the variant ATTGGDGV
## Result no binding

## Task Name the reported non-specific binding call value associated with the variant VRRETVSD
## Result binds

## Task Name the reported non-specific binding call value associated with the variant YKGRGDGY
## Result binds

## Task Name the reported non-specific binding call value associated with the variant VEEEGAGD
## Result no binding

## Task Name the reported non-specific binding call value associated with the variant YKGEGDVV
## Result no binding
